assay-summary: yeast display, Sf9 membrane polyspecificity reagent, FACS + sequencing; frameworks hold sequencing errors
outcome-measure: polyreactivity (PSR sort gate)

// worked examples, polyreactivity (PSR sort gate) included
item-sequence: QVQLVESGGGLVQAGGSLRLSCAASGLTFGFNAMGWYRQAPGKERELVAAISSRGGSTYYADSVKGRFTISRDNAKNTVYLQMNSLKPEDTAVYYCNARSVYDGFWYNYWGQGTQVTVSS
polyreactivity (PSR sort gate): low polyreactivity

item-sequence: QVQLVESGGGLVQAGGSLRLSCAASGSIFPTYAMGWYRQAPGKERELVAAITGSGGSTYYADSVKGRFTISRDNAKNTVYLQMNSLKPEDTAVYYCAKDVYWYGVWYDYWGQGTQLTVSS
polyreactivity (PSR sort gate): high polyreactivity

item-sequence: QLQLVESGGGLVQAGGSLRLSCAASGSTFVLYAKGWYRQAPGKERELVAAITWSGDDTYYADSVKGRFTISRDNEKNTVYLQMTSLKPEDTAVYSCAADGRGDLYVWPGIGGDYWGQGTQVTVSS
polyreactivity (PSR sort gate): low polyreactivity

item-sequence: QVQLVESGGGLVQAGASLRLSCAASGRIYPVYTMGWYRQAPGKERELVAAITSSGGSTYYADSVKGSFTISRDNAKNTVYLQMNSLKPEDTAVYDCAKRAGWAYYYWGQGTQVTVSS
polyreactivity (PSR sort gate): high polyreactivity

Please give the documented polyreactivity (PSR sort gate) of `QVQLVESGGGLVQAGGSLSLSCAASGSIYWYAMGWYRQAPGKERELVSAISRRGGSTYYADSLKGRFTISRDNAKNTVYLQMNSLKPEDTAVYYCAVGIYGEYDYWGQGTQVTVSS`
high polyreactivity

Please give the documented polyreactivity (PSR sort gate) of `QVQLVESGGGLVQAGGSLRLSCAASGRIFELNARGWYSQAPGKERELVAVISSGGNTHYADSVKGRFTISRDNAKNTVYLQMNSLNPEDTAVYYCAAVASKHWGRDYWGQGTQVTVSS`
low polyreactivity

* * *

assay-summary: yeast display, Sf9 membrane polyspecificity reagent, FACS + sequencing; frameworks hold sequencing errors
outcome-measure: polyreactivity (PSR sort gate)

item-sequence: QVQLVESGGGLVQAGGSLRLSCAASGSTFSTYAMGWYRQAPGKERELVAAIRSGGSTYYADSVKGRFTISRDNAKNTVYLQMNSLKPEDTAVYYCAAKPRNYSYRYYYWGQGTLVTVSS
obs-value: high polyreactivity
--
item-sequence: QVQLVESGGGLVQAGGSLRLSCAASGRTFGFNAMGWYRQAPGKDRELVASITRGGRTDYADSVKGRFTISRDNAKNTVYLQMNSLKPEDTAVYYCAAQSGWHHTGGMYYWGQGTQVTVSS
obs-value: high polyreactivity
--
item-sequence: QVQLVESGGGLVQAGGSLRLSCAASGSTFGYYAMGWYRQAPGKERELVAAITIRGDGTYYADSVKGRFTISRDNAKNTVYLQMNSLIPEDTAVYYCAAEDWLWFDYWGQGTQVTVSS
obs-value: high polyreactivity

* * *

assay-summary: yeast display, Sf9 membrane polyspecificity reagent, FACS + sequencing; frameworks hold sequencing errors
outcome-measure: polyreactivity (PSR sort gate)

// worked examples, polyreactivity (PSR sort gate) included
item-sequence: QVQLVESGGGLVQAGGSLRLSCAASGFIFGYYVMGWYRQAPGKERELVAAISGSGGRTYYADSVKGRFTISRDNAKNNVYLQMNSLKPEDTAVYYCNAVAFYRDYNYWGQGTQVTVSS
polyreactivity (PSR sort gate): high polyreactivity
//
item-sequence: QVQLVESGGGLVQAGGSLRLSCDASGRTYTGYAIGWYRQAPGKERELVAAISKSGGRTYYADSVKGRFTISRDYAKNTVYLQMNSLKPEDTAVYYCAKVETFLQIAYRRGYDSWGQGTQVTVSS
polyreactivity (PSR sort gate): low polyreactivity
//
item-sequence: QVQLVESGGGLVQAGGSLRLSCAASGGTFSRYVMGWYRQAPGKERELVAAITRSGSTNYADSVKGRFTISRDNAKNTVYLQMNSLKPEDTAVYYCATDKRGRIGGTFDYWGQGTQVTVSS
polyreactivity (PSR sort gate): low polyreactivity
//
item-sequence: QVQLVESGGGLVQAGGSLRLSCAASGRIFRRNAMGWYRQAPGKERDLVAAITYSGTRTYYADSVKGRFTISRDNAKITVYLQMNSLKPEDTAVYYCNAGVGYFVGTYYGFLPYDYWGQGTQVTVSS
polyreactivity (PSR sort gate): high polyreactivity
//
item-sequence: QVQLVESGGGLVQAGGSLRLSCAASGRIFRGNVMGWYRQAPGKERELVAVIRSSSGRTYYADSVKGRFTISRDNAKNTVYLQMNSLKPEDTAVYYCAAKSVWGQGTQVTVSS
polyreactivity (PSR sort gate): high polyreactivity

Please give the documented polyreactivity (PSR sort gate) of `QVQLVESGGGFVQAGRSLRLSCAASGSTFYIYAMGWSRQAPGKEREMVADISRGDSTNYADSVKGRFTISRDNAKNPVYLQLNSLKPEDTAVYYCNAAFRGERDWFSGRRYKFDYWGQGTQVTVSS`
low polyreactivity

* * *

assay-summary: yeast display, Sf9 membrane polyspecificity reagent, FACS + sequencing; frameworks hold sequencing errors
outcome-measure: polyreactivity (PSR sort gate)

// worked examples, polyreactivity (PSR sort gate) included
item-sequence: QVQLVESGGGLVQAGGSLRLSCAASGSTFYYNAMGWYRQAPGKERELVARISRSGGSTYADSVKGRVTISRDNAKNTVYLQMNSLKPEDTAVYYCNADAYGTPEFTSYAVRYDYWGQGTQVTVSS
polyreactivity (PSR sort gate): low polyreactivity

item-sequence: QVQLVESGGGLVQAGGSLRLSCAASGITFYRYAMGWYRQAPGKERELVAAISYRGGRTFYADSVKGRFTISRDNAKNTVYLQMNSLKPEDTAVYYCNARDYYEKMDYWGQGTQVTVSS
polyreactivity (PSR sort gate): high polyreactivity

item-sequence: QVQLVESGGGLVQAGGRLRLSCAASGSTFTHYAMGWYRQAPGKERELVAAISSGGSTYYADSVKGRFTISRDNAKNTVYLQMNSLKPEDTAVYYCAADYDWHDWWYPHDYWGQGTQVTVSS
polyreactivity (PSR sort gate): low polyreactivity

item-sequence: QVQLVESGGGLVQAGGSLRLTCAASGRTFDCYAMGLYRQAPGKERELVAAISSRGGSTYYADSVKGRFTISRDNAKNTVYLQMNSLKPEDTSVYYCAKDLGYRGRYNYWGQGTQVTVSS
polyreactivity (PSR sort gate): low polyreactivity

item-sequence: QVQLVESGGGLVQAGGSLRLSCAASGSIVKHYAMGWYRQAPGKERKLVATITRSGRTNYADSVKGRFTISRDNAKNTVYLQMNSLKPEDTAVYYCNTVRGGQSPHPVRYGYWGQGTQVTVSS
polyreactivity (PSR sort gate): high polyreactivity

Please give the documented polyreactivity (PSR sort gate) of `QVQLVESGGGVVQAGRSLRLSCAASGSTFQPYAMGSYRQAPGKEREFVATISGSAGSTYYADSVKGSFKISRDNAKNTVYLQMTSLKPEDTAVYYCNADSGWFGYDYWGQGTQVTVSS`
low polyreactivity

Please give the documented polyreactivity (PSR sort gate) of `QVQVVESGGGLVQAGGSLRLSCGASGSTFQGNAMGWYRPAPGKDRALDAAISRSGGSTYADSVKGRFTISRDNAKNTVYLQMNSLKPADTAVYYCAADALYWIGRMDYWGQGTQVTVSS`
low polyreactivity

* * *

assay-summary: yeast display, Sf9 membrane polyspecificity reagent, FACS + sequencing; frameworks hold sequencing errors

item-sequence: QVQLEESGGGLVQAGGSLRLICAASGIFFIYAMGWYRQARGKERELVADIDSGGPTYYADSVKGRFTISRDNAKNTVYLQMNRLQPEDTAVYYCAFDYSNVDLYSLLFYESDYWGQGTQVTVSS
polyreactivity (PSR sort gate): low polyreactivity
//
item-sequence: QVQLVESGGGLVQAGGSLRLSCAASGSISAVNTMGWYRQAPGKERELVATISYSTASTYYADSVKGRFTISRDNAKITVYLQMNCLKPEDTAVYFCAADAYFDTWYDYWGQGTQVTVSS
polyreactivity (PSR sort gate): low polyreactivity
//
item-sequence: QVQLVESGGGLVQAGGSLRLSCAASGRTFRVNAMGWYRQAPGKERELVASITYSGGSTYYADSVKGRFTISRDNAKNTVYLQMNSLKQEDTAVYYCAADWYRSPYDYWGQGTQVTVSS
polyreactivity (PSR sort gate): low polyreactivity

* * *

assay-summary: yeast display, Sf9 membrane polyspecificity reagent, FACS + sequencing; frameworks hold sequencing errors
outcome-measure: polyreactivity (PSR sort gate)

item-sequence: QVQLVESGGGLVQAGGSLRLSCAASGSTFSFYAMGVYRQAPGKERELVAAISKSGGRTYYADSVKGRFTISRDNAKYTVYLQMNSLKPEDTAVYYCAARGNGQYVGKYYYWGQGTQVTVSS
polyreactivity (PSR sort gate): high polyreactivity
--
item-sequence: QVQLVESGGGLVQAGGSLRLSCAASGRTFAIYVMGWYRHAPGKERELVAAITRVGSTYADSVKGRFTISRDNAKNTVYLQMNSLKPEDTAVYYCAAVSGVRSGPWRYDYWGQGTQVTVSS
polyreactivity (PSR sort gate): high polyreactivity
--
item-sequence: QVQLVESGGGLVQAGGSLRLSCAASGYTFYPYAMGWYRQAPGKERELVAAISYSGGRTYYADSVKGRFTISRDNAKNTVYLQMNSLKPEDTAVYYCAADSGRYRMYYWGQGTQVTVSS
polyreactivity (PSR sort gate): high polyreactivity
--
item-sequence: QVQLVESGGGLVQAGGSLRLSCAAYGSTFNYKAMAWYRQAQGKERELVATITTSGGSTYYADSVKGRFTISRDNAKNTVYLQMNSLKPEDTAVYYCAARYPWSVYRIYGAHYDYWGQGTLVTVSS
polyreactivity (PSR sort gate): low polyreactivity

Now for another entry.
Please give the documented polyreactivity (PSR sort gate) of `QVQLVESGGGLVQAGGSLRLSCAASGGTFTPYDMGWYRQAPGKERELVASITGSGGSTYYADSVKGRFTISRGNAKNTVYLQMNSLKPEDTAVYYCAAQGYWTYWPYLLRLYDYWGQGTQVTVSS`
low polyreactivity
